pKi overview
SYSTEM TESTED: UniProt Q72874
MEASUREMENT DESCRIPTION: Binding affinity to HIV-1 protease
Starred links: 1 amine or outer side, 2 acyl side, 3 side chain; linkers in the order of their positions; H or OH if unused. Non-standard residues stand in square brackets, D forms with d. Residues, ends and D or L forms follow the SMILES beside them. *: point of attachment. PheΨ(PO2HCH2)Gly = O=C(CCP(=O)(O)[C@H](Cc1ccccc1)N[*:1])[*:2]; X4 = O=C([C@H](Cc1ccccc1)N[*:1])C(F)(F)C(=O)[*:2]; X6 = O=C(CC[C@@H](O)[C@H](Cc1ccccc1)N[*:1])[*:2]; Boc = CC(C)(C)OC(=O)*
Reminder that pKi means the negative base-10 logarithm of the concentration expressed in mol/L.

COMPOUND	TEST VALUE
COC(=O)[C@@H](NC(=O)[C@@H](NC(=O)CC[C@@H](O)[C@H](Cc1ccccc1)NC(=O)[C@H](C)NC(=O)[C@H](C)NC(=O)[C@@H](N)CO)C(C)C)C(C)C (H-SAA[X6]VV-OMe)	5.31
COC(=O)[C@@H](NC(=O)[C@@H](NC(=O)CCP(=O)(O)[C@H](Cc1ccccc1)NC(=O)[C@H](C)NC(=O)[C@H](C)NC(=O)[C@@H](N)CO)C(C)C)C(C)C (H-SAA[PheΨ(PO2HCH2)Gly]VV-OMe)	5.36

The record that follows has no pKi shown yet.
Ask: // query pKi value for entry COC(=O)[C@@H](NC(=O)[C@@H](NC(=O)C(F)(F)C(=O)[C@H](Cc1ccccc1)NC(=O)[C@H](C)NC(=O)[C@H](C)NC(=O)[C@H](CO)NC(=O)OC(C)(C)C)C(C)C)C(C)C (Boc-SAA[X4]VV-OMe)
Reply: 6.80

---

SYSTEM TESTED: Human immunodeficiency virus type 1 protease (Human immunodeficiency virus 1)
Starred links: 1 amine or outer side, 2 acyl side, 3 side chain; linkers in the order of their positions; H or OH if unused. Non-standard residues stand in square brackets, D forms with d. Residues, ends and D or L forms follow the SMILES beside them. *: point of attachment. Hexanoyl(5S-NH,4S-OH,6-Ph) = O=C(CC[C@H](O)[C@H](Cc1ccccc1)N[*:1])[*:2]; Cbz = O=C(OCc1ccccc1)*
QUANTITY NAME: pKi
Reminder that pKi means the negative base-10 logarithm of the concentration expressed in mol/L.

Solved cases (4 shown):
MOLECULE	pKi
COC(=O)[C@@H](NC(=O)[C@@H](NC(=O)CC[C@H](O)[C@H](Cc1ccccc1)NC(=O)[C@H](C)NC(=O)[C@H](C)NC(=O)[C@@H](N)CO)C(C)C)C(C)C (H-SAA[Hexanoyl(5S-NH,4S-OH,6-Ph)]VV-OMe)	7.21
CC(C)[C@H](NC(=O)OCc1ccccc1)C(=O)N[C@@H](Cc1ccccc1)C(=O)C(F)(F)CCc1ccccc1 (stereo in doubt; 12)	8.57
COC(=O)[C@@H](NC(=O)[C@@H](NC(=O)CC[C@H](O)[C@H](Cc1ccccc1)NC(=O)[C@H](Cc1ccccc1)NC(=O)[C@H](C)NC(=O)[C@H](C)NC(=O)OCc1ccccc1)C(C)C)C(C)C (Cbz-AAF[Hexanoyl(5S-NH,4S-OH,6-Ph)]VV-OMe)	7.32
CC(C)[C@H](NC(=O)OCc1ccccn1)C(=O)N[C@@H](Cc1ccccc1)C(=O)C(F)(F)CCc1ccccc1	8.66

The record that follows has no pKi shown yet.
Ask: // query pKi value for entry COC(=O)[C@@H](NC(=O)[C@@H](NC(=O)CC[C@H](O)[C@H](Cc1ccccc1)NC(=O)[C@H](C)NC(=O)OCc1ccccc1)C(C)C)C(C)C
Reply: 6.92
